molecular target: NOD-like receptor protein 3 (NLRP3) (Homo sapiens)
Sequence (Q96P20 220-536 limits assumed): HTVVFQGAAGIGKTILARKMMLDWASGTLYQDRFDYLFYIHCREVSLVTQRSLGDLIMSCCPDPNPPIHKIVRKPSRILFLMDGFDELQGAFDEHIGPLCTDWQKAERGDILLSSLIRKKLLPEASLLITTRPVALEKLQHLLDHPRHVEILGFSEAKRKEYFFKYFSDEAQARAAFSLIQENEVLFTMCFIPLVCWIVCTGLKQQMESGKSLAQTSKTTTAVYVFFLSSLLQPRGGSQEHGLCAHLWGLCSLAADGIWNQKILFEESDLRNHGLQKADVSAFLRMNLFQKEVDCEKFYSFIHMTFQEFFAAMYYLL
Endpoint Name: Kd

Prompt: # get_value(readout='Kd', item= Oc1c(I)cc(Cl)c2cccnc12 [CQ, 5-chloro-7-iodo-8-hydroxyquinoline] )
Response: 9.93 µM
